Reference source: patent US20220073608A1

Molecular target: T1, mouse SEMA4D, full length, on CHO-K1 cells (CHO-K1 mSEMA4D) (mouse, UniProt O09126 24-861)
T1 construct: whole, on cells; also called murine SEMA4D recombinant cells
T1 sequence (looked up): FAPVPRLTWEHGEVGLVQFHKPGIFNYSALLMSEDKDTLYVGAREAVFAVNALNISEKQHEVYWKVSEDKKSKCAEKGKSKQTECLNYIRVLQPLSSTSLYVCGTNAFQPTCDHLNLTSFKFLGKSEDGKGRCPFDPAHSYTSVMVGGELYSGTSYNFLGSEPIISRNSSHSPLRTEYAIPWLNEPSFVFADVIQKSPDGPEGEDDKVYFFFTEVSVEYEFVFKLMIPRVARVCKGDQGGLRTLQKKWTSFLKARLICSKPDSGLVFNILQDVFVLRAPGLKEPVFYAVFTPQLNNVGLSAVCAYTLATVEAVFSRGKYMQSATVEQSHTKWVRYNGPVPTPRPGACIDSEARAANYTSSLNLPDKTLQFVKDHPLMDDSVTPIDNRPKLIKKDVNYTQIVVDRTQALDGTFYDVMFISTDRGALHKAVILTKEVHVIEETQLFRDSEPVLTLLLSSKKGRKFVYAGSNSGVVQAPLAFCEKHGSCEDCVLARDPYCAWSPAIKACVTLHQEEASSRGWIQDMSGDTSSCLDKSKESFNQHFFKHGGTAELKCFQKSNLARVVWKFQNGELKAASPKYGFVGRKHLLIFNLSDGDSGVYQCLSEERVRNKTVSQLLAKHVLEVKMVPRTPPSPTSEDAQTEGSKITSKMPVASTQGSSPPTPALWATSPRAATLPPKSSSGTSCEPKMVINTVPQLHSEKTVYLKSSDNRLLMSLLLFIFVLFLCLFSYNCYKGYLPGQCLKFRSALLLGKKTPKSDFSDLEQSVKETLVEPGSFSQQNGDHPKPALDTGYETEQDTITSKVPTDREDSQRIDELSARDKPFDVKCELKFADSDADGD
Assay: FACS, CHO-K1 mSEMA4D cells; Ab 2.67 nM

>  <Binder>
37F11F9 (antibody, V domains shown, Mouse monoclonal antibody purified from hybridoma supernatant on protein A) VH: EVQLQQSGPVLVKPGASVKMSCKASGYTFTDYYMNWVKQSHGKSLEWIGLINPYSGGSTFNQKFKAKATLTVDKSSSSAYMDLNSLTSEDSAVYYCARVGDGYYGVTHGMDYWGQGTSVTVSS VL: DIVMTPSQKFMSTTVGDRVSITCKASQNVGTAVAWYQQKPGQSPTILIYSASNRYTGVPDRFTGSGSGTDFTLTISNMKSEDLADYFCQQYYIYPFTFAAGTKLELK

>  <MFI>
30.6

$$$$
>  <Binder>
42B7G2 (antibody, V domains shown, Mouse monoclonal antibody purified from hybridoma supernatant on protein A) VH: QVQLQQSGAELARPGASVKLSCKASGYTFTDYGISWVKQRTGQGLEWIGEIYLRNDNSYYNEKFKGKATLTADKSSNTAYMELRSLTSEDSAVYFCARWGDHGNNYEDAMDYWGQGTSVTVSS VL: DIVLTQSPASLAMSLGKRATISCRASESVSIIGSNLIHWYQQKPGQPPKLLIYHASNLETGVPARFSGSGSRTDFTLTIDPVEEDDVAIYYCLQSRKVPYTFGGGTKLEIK

>  <MFI>
31

$$$$
>  <Binder>
37C4F7 (antibody, V domains shown, Mouse monoclonal antibody purified from hybridoma supernatant on protein A) VH: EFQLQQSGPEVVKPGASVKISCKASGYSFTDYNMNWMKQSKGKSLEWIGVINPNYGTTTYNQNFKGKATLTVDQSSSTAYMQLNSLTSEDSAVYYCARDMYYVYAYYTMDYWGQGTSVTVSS VL: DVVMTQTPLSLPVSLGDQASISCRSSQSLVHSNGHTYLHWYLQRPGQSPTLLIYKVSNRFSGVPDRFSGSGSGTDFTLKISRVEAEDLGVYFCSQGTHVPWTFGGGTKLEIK

>  <MFI>
30

$$$$
>  <Binder>
31G10C5 (antibody, V domains shown, Mouse monoclonal antibody purified from hybridoma supernatant on protein A) VH: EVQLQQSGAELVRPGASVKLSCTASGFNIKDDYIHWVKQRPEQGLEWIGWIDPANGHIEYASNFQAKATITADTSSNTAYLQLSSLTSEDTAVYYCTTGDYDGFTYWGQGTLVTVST VL: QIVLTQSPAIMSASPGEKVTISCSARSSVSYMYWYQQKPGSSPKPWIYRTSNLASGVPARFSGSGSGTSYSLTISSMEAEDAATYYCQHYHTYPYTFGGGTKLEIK

>  <MFI>
30.1

$$$$
>  <Binder>
32C8F10 (antibody, V domains shown, Mouse monoclonal antibody purified from hybridoma supernatant on protein A) VH: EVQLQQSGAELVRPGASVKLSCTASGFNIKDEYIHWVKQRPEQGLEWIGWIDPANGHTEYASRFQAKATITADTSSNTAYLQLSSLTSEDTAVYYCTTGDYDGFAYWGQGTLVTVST VL: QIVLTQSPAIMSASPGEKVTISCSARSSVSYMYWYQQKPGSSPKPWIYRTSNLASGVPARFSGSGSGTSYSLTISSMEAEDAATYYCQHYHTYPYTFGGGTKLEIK

>  <MFI>
30.7

$$$$
